- TARGET_SYSTEM: MshC W227F mutant (Mycolicibacterium smegmatis, UniProt A0QZY0, W227F)
- MEASUREMENT_PROTOCOL: Tryptophan fluorescence titration of inhibitor binding
- Parameters: species or system Mycobacterium smegmatis
- RUN_CONDITIONS: fluorescence method, 0.1 μM protein, pH 7.8, 25 °C
QUANTITY: pKd
Keep in mind that pKd stands for -log10 of concentration in molar terms.

Record Nc1ncnc2c1ncn2[C@@H]1O[C@H](COS(=O)(=O)NC(=O)[C@@H](N)CS)[C@@H](O)[C@H]1O [CSA, reference compound] , field pKd: 7.28

###

- TARGET_SYSTEM: MshC W227H mutant (Mycolicibacterium smegmatis, UniProt A0QZY0, W227H)
- MEASUREMENT_PROTOCOL: Tryptophan fluorescence titration of inhibitor binding
- RUN_CONDITIONS: fluorescence method, 0.1 μM protein, pH 7.8, 25 °C
QUANTITY: pKd
Keep in mind that pKd stands for -log10 of concentration in molar terms.

Record Nc1ncnc2c1ncn2[C@@H]1O[C@H](COS(=O)(=O)NC(=O)[C@@H](N)CS)[C@@H](O)[C@H]1O [CSA, reference compound] , field pKd: 7.35

###

- TARGET_SYSTEM: MshC W227F mutant (Mycolicibacterium smegmatis, UniProt A0QZY0, W227F)
- MEASUREMENT_PROTOCOL: Pre-steady state kinetics of cysteine adenylation
- Format: biochemical, Mycobacterium smegmatis
QUANTITY: pKd
Keep in mind that pKd stands for -log10 of concentration in molar terms.

Summary: `N[C@@H](CS)C(=O)O` , MshC W227F mutant (Mycolicibacterium smegmatis, UniProt A0QZY0, W227F), pKd = 3.22

###

- TARGET_SYSTEM: MshC H55A mutant (Mycolicibacterium smegmatis, UniProt A0QZY0, H55A)
QUANTITY: Ki (nM)
Field format: number, assumed nM, no unit text.

Record Nc1ncnc2c1ncn2[C@@H]1O[C@H](COS(=O)(=O)NC(=O)[C@@H](N)CS)[C@@H](O)[C@H]1O [CSA, reference compound] , field Ki: 890
